- MEASUREMENT PROTOCOL: Cytotoxicity against human MCF-10A cells assessed as inhibition of cell growth incubated for 48 hrs by MTT assay
- Assay type: toxicity, cell-based
For each of the molecules below, state its IC50 at 48 h.
Give bare numbers, in µM.

Some solved entries appear below for comparison.
| INPUT SMILES | READOUT TYPE | MEAS VALUE |
| --- | --- | --- |
| N=C(CCl)NCCC[C@H](NC(=O)c1cc2c([nH]c3ccccc32)c(-c2nc3ccccc3[nH]2)n1)C(=O)NCc1ccccc1 | IC50 at 48 h | 3 |
| COc1cc(OC)c(-c2nc(C(=O)N[C@@H](CCCNC(=N)CCl)C(=O)NCc3ccccc3)cc3c2[nH]c2ccccc23)c(OC)c1 | IC50 at 48 h | 16.9 |

I'm hoping you can list IC50 at 48 h for every molecule here, please.
1. N#Cc1ccc(-c2nc(C(=O)N[C@@H](CCCNC(=N)CCl)C(=O)NCc3ccccc3)cc3c2[nH]c2ccccc23)cc1
2. N=C(CCl)NCCC[C@H](NC(=O)c1cc2c([nH]c3ccccc32)c(-c2ccncc2)n1)C(=O)NCc1ccccc1
3. CC(C)Cc1nc(C(=O)N[C@@H](CCCNC(=N)CCl)C(=O)NCc2ccccc2)cc2c1[nH]c1ccccc12
4. N=C(CCl)NCCC[C@H](NC(=O)c1cc2c([nH]c3ccccc32)c(-c2ccc3ccccc3n2)n1)C(=O)NCc1ccccc1

11.1
83.8
5.16
2.77

---

- MEASUREMENT PROTOCOL: Cytotoxicity against human MCF-10A cells assessed as inhibition of cell growth incubated for 48 hrs by MTT assay
- Type: toxicity, cell-based
Could you please mark Yes for values of IC50 at 48 h below 7 µM and No for values at or above it?

# example entries with known answers
| INPUT SMILES | GROUP LABEL |
| --- | --- |
| N=C(CCl)NCCC[C@H](NC(=O)c1cc2c([nH]c3ccccc32)c(-c2ccc3ccccc3c2)n1)C(=O)NCc1ccccc1 | No |
| CCCCCCCCCc1nc(C(=O)N[C@@H](CCCNC(=N)CCl)C(=O)NCc2ccccc2)cc2c1[nH]c1ccccc12 | No |
| COc1cccc(OC)c1-c1nc(C(=O)N[C@@H](CCCNC(=N)CCl)C(=O)NCc2ccccc2)cc2c1[nH]c1ccccc12 | No |
| Cc1nc(C(=O)N[C@@H](CCCNC(=N)CCl)C(=O)NCc2ccccc2)cc2c1[nH]c1ccccc12 | No |
| N=C(CCl)NCCC[C@H](NC(=O)c1ccc2nccnc2c1)C(=O)NCc1ccccc1 | No |
| N=C(CCl)NCCC[C@H](NC(=O)c1cc2c([nH]c3ccccc32)c(C2CC2)n1)C(=O)NCc1ccccc1 | Yes |

Does N=C(CCl)NCCC[C@H](NC(=O)c1cc2c([nH]c3ccccc32)c(-c2ccc(Cl)cc2)n1)C(=O)NCc1ccccc1 have IC50 at 48 h strictly under 7 µM?
Yes

Does N=C(CCl)NCCC[C@H](NC(=O)c1cc2c([nH]c3ccccc32)c(-c2cccc([N+](=O)[O-])c2)n1)C(=O)NCc1ccccc1 have IC50 at 48 h strictly under 7 µM?
No

Does CN(C)c1ccc2cc(C(=O)N[C@@H](CCCNC(=N)CCl)C(=O)NCc3ccccc3)ccc2c1 have IC50 at 48 h strictly under 7 µM?
Yes

Does N=C(CCl)NCCC[C@H](NC(=O)c1cc2c([nH]c3ccccc32)c(-c2cccs2)n1)C(=O)NCc1ccccc1 have IC50 at 48 h strictly under 7 µM?
No

Does CCC(CC)c1nc(C(=O)N[C@@H](CCCNC(=N)CCl)C(=O)NCc2ccccc2)cc2c1[nH]c1ccccc12 have IC50 at 48 h strictly under 7 µM?
Yes

Does N=C(CCl)NCCC[C@H](NC(=O)c1cc2c([nH]c3ccccc32)c(-c2nccc3ccccc23)n1)C(=O)NCc1ccccc1 have IC50 at 48 h strictly under 7 µM?
Yes

Does N=C(CCl)NCCC[C@H](NC(=O)c1cc2c([nH]c3ccccc32)c(-c2ccccc2)n1)C(=O)NCc1ccccc1 have IC50 at 48 h strictly under 7 µM?
No

Does N=C(CCl)NCCC[C@H](NC(=O)c1nc2ccccc2[nH]1)C(=O)NCc1ccccc1 have IC50 at 48 h strictly under 7 µM?
No

Does COC(Cc1nc(C(=O)N[C@@H](CCCNC(=N)CCl)C(=O)NCc2ccccc2)cc2c1[nH]c1ccccc12)OC have IC50 at 48 h strictly under 7 µM?
No

Does N=C(CCl)NCCC[C@H](NC(=O)c1cc2c([nH]c3ccccc32)c(-c2ccc(O)cc2)n1)C(=O)NCc1ccccc1 have IC50 at 48 h strictly under 7 µM?
No

---

This section lists pIC50 readings for Protein-arginine deiminase type-2 (Homo sapiens, UniProt Q9Y2J8).
One number for each entry, as −log10 of the molar value.

Some solved entries appear below for comparison.
| INPUT SMILES | pIC50 |
| --- | --- |
| COc1ccc(-c2nc(C(=O)N[C@@H](CCCNC(=N)CCl)C(=O)NCc3ccccc3)cc3c2[nH]c2ccccc23)cc1 | 5.52 |
| N=C(CCl)NCCC[C@H](NC(=O)c1cc2c([nH]c3ccccc32)c(-c2cccs2)n1)C(=O)NCc1ccccc1 | 5.42 |
| CCC(CC)c1nc(C(=O)N[C@@H](CCCNC(=N)CCl)C(=O)NCc2ccccc2)cc2c1[nH]c1ccccc12 | 5.87 |
| N=C(CCl)NCCC[C@H](NC(=O)c1c[nH]c2ccccc12)C(=O)NCc1ccccc1 | 6.46 |

I'm hoping you can list pIC50 for every compound here, please.
1. CN(C)c1ccc2cc(C(=O)N[C@@H](CCCNC(=N)CCl)C(=O)NCc3ccccc3)ccc2c1
2. N=C(CCl)NCCC[C@H](NC(=O)c1ccc2c(c1)NCCN2)C(=O)NCc1ccccc1
3. N=C(CCl)NCCC[C@H](NC(=O)c1cc2c([nH]c3ccccc32)c(-c2ccccc2)n1)C(=O)NCc1ccccc1
4. COc1cccc(OC)c1-c1nc(C(=O)N[C@@H](CCCNC(=N)CCl)C(=O)NCc2ccccc2)cc2c1[nH]c1ccccc12

[5.28, 5.71, 5.53, 5.82]

---

- Test system: 4T1
- MEASUREMENT PROTOCOL: Antiproliferative activity against mouse 4T1 cells assessed as inhibition of cell growth incubated for 48 hrs by MTT assay
- Format: functional, cell-based
- CONDITIONS USED: 4T1, 48 h
Could you please mark YES for values of IC50 below 7 µM and NO for values at or above it?

| INPUT SMILES | GROUP LABEL |
| --- | --- |
| N=C(CCl)NCCC[C@H](NC(=O)c1ccc2[nH]ccc2c1)C(=O)NCc1ccccc1 | NO |
| CN(C)c1ccc2cc(C(=O)N[C@@H](CCCNC(=N)CCl)C(=O)NCc3ccccc3)ccc2c1 | NO |
| N=C(CCl)NCCC[C@H](NC(=O)c1cc2c([nH]c3ccccc32)c(-c2nccc3ccccc23)n1)C(=O)NCc1ccccc1 | YES |
| COC(Cc1nc(C(=O)N[C@@H](CCCNC(=N)CCl)C(=O)NCc2ccccc2)cc2c1[nH]c1ccccc12)OC | NO |
| N=C(CCl)NCCC[C@H](NC(=O)c1cc2c([nH]c3ccccc32)c(-c2ccccc2)n1)C(=O)NCc1ccccc1 | YES |

Does N=C(CCl)NCCC[C@H](NC(=O)c1cc2c([nH]c3ccccc32)c(C2CC2)n1)C(=O)NCc1ccccc1 have IC50 strictly under 7 µM?
NO

Does N=C(CCl)NCCC[C@H](NC(=O)c1cc2c([nH]c3ccccc32)c(-c2ccc(F)cc2)n1)C(=O)NCc1ccccc1 have IC50 strictly under 7 µM?
NO

Does N=C(CCl)NCCC[C@H](NC(=O)c1nc2ccccc2[nH]1)C(=O)NCc1ccccc1 have IC50 strictly under 7 µM?
NO

---

- Test system: 4T1
- MEASUREMENT PROTOCOL: Antiproliferative activity against mouse 4T1 cells assessed as inhibition of cell growth incubated for 48 hrs by MTT assay
- Type: functional, cell-based
- CONDITIONS USED: 4T1, 48 h
READOUT TYPE: log10 of IC50 (log10 of the value in µM)
Hi team, quick reminder: these entries are log10 of IC50 (µM).

Some solved entries appear below for comparison.
| INPUT SMILES | TEST SYSTEM | MEAS VALUE |
| --- | --- | --- |
| COc1ccc(-c2nc(C(=O)N[C@@H](CCCNC(=N)CCl)C(=O)NCc3ccccc3)cc3c2[nH]c2ccccc23)cc1 | 4T1 | 0.87 |
| CC(C)Cc1nc(C(=O)N[C@@H](CCCNC(=N)CCl)C(=O)NCc2ccccc2)cc2c1[nH]c1ccccc12 | 4T1 | 1.00 |

I'm hoping you can list log10 of IC50 for every compound here, please.
1. N=C(CCl)NCCC[C@H](NC(=O)c1cc2c([nH]c3ccccc32)c(-c2ccc3ccccc3n2)n1)C(=O)NCc1ccccc1
2. CC(C)c1ccc(-c2nc(C(=O)N[C@@H](CCCNC(=N)CCl)C(=O)NCc3ccccc3)cc3c2[nH]c2ccccc23)cc1
3. N#Cc1ccc(-c2nc(C(=O)N[C@@H](CCCNC(=N)CCl)C(=O)NCc3ccccc3)cc3c2[nH]c2ccccc23)cc1
4. N=C(CCl)NCCC[C@H](NC(=O)c1cc2c([nH]c3ccccc32)c(-c2ccncc2)n1)C(=O)NCc1ccccc1

1: -0.06; 2: 0.63; 3: 1.26; 4: 1.66

I'm hoping you can list log10 of IC50 for every compound here, please.
1. N=C(CCl)NCCC[C@H](NC(=O)c1cc2c(cn1)[nH]c1ccccc12)C(=O)NCc1ccccc1
2. N=C(CCl)NCCC[C@H](NC(=O)c1c[nH]c2ccc(F)cc12)C(=O)NCc1ccccc1

[1.37, 1.93]
